Hey, just so you know, these numbers are from the supplement of paper PMC7877785.

Exercise: for every item that follows, state its recorded self-splicing fitness (ln).
- assayInfo: self-splicing fitness, log relative to wild type (ln ratio); higher = more splicing; Tetrahymena group I intron in knt gene, E. coli kanamycin selection, DiMSum; sequences stand for … in CUCUCU…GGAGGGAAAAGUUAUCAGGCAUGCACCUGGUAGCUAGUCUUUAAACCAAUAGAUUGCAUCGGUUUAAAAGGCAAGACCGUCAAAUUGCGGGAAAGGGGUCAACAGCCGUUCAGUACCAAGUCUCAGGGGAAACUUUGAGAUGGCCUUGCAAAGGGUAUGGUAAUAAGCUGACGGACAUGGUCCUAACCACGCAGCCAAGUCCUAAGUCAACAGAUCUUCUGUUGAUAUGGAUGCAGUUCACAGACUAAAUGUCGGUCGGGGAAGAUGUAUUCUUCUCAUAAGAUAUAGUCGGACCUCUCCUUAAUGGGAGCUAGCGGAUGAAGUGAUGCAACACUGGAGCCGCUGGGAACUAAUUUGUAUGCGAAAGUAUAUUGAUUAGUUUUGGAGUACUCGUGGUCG;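 further: selection with 25 µg/mL kanamycin versus none on LB agar overnight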
- conditionInfo: 37 °C
Output: the number by itself.

-- ask // returns reported self-splicing fitness (ln) for input CCUGAGCAAUAUUACGCAGA
-- reply -1.96

-- ask Follow-up entry: GGUCAGCAAUAUUACGAACA
-- reply -0.749

-- ask Queued: UCGUAGCAAUAUUACGACAG
-- reply -1.5

-- ask Next sequence up: UGGGAGCAAUAUUACGUCCU
-- reply -1.3

-- ask Ok, now UGAAAGCAAUAUUACGGAAA
-- reply -1.29

-- ask Further, for CUACAGCAAUAUUACGUACA ?
-- reply -1.29

-- ask Entry to check: CCCCAGCAAUAUUACGUCCA
-- reply -3.2

-- ask Repeat with AGAGAGCAAUAUUACGACAG
-- reply -2.52

-- ask Can you handle GCGUAGCAAUAUUACGCAGU next?
-- reply -2.28

-- ask Then this sequence: GAUUAGCAAUAUUACGUUGG
-- reply -2.16

-- ask Same lookup for UGGGAGCAAUAUUACGCGCA , please.
-- reply -1.16

-- ask How about CAGAAGCAAUAUUACGGCCA ?
-- reply -1.83

-- ask And what about the sequence GGGAAGCAAUAUUACGCGCG ?
-- reply -0.552

-- ask Item: CUCAAGCAAUAUUACGUCAU
-- reply -2.55

-- ask Further, for UACAAGCAAUAUUACGUAUC ?
-- reply -2.69

-- ask Input UGUAAGCAAUAUUACGAAGA
-- reply -0.905
